- target-of-assay: Metabotropic glutamate receptor 5 (Rattus norvegicus)
- protocol-summary: Inhibition of mGluR5 in rat embryo neuronal culture assessed as calcium level by Fluo-4/AM dye based fluorometry
pIC50: −log10 of the molar value.
fulfilled means recorded pIC50 is 6 or above; not fulfilled means it is below 6.

Prompt: Is pIC50 at least 6? Consider COc1ccc(CCC(=O)c2sc3ncccc3c2-c2ccccc2)cc1
Response: not fulfilled

Prompt: Is pIC50 at least 6? Consider O=C(OCc1ccc(F)cc1)c1sc2ncccc2c1-c1ccc(Cl)cc1
Response: fulfilled

Prompt: Is pIC50 at least 6? Consider O=S(=O)(c1ccc(Cl)cc1)c1sc2ncccc2c1-c1ccc(Cl)cc1
Response: fulfilled

Prompt: Is pIC50 at least 6? Consider O=C(CCc1ccc(F)cc1)c1sc2ncccc2c1-c1ccccc1
Response: not fulfilled

Prompt: Is pIC50 at least 6? Consider O=C(CCc1ccccc1)c1sc2ncccc2c1-c1ccccc1
Response: not fulfilled

Prompt: Is pIC50 at least 6? Consider O=C(Cc1ccc(F)cc1)c1sc2ncccc2c1-c1ccc(Cl)cc1
Response: fulfilled

====

- target-of-assay: Metabotropic glutamate receptor 5 (Rattus norvegicus) (UniProt P31424)
- protocol-summary: Displacement of [3H]-M-MPEP from mGluR5 in rat cerebrocortical membrane preparation at 1 uM
- Assay type: cell membranes
Fulfilled means recorded inhibition is 3% or above; Not fulfilled means it is below 3%.

Solved cases (3 shown):
smiles-input	class
O=C(CCc1ccccc1)c1sccc1-c1ccc(F)cc1	Not fulfilled
O=C(Oc1ccc(F)cc1)c1sc2ncccc2c1-c1ccc(Cl)cc1	Fulfilled
CN(C(=O)c1sc2ncccc2c1-c1ccc(F)cc1)c1ccc(F)cc1	Fulfilled

Prompt: Is inhibition at least 3%? Consider Fc1ccc(-c2nc(-c3sc4ncccc4c3-c3ccc(Cl)cc3)no2)cc1
Response: Not fulfilled

Prompt: Is inhibition at least 3%? Consider O=C(CCc1ccc(F)cc1)c1sc2ccccc2c1-c1ccc(F)cc1
Response: Fulfilled

====

Each entry below carries its recorded inhibition.
- target-of-assay: Metabotropic glutamate receptor 5 (Rattus norvegicus)
- protocol-summary: Displacement of [3H]-M-MPEP from mGluR5 in rat cerebrocortical membrane preparation at 1 uM
- Type: cell membranes
Record the value in %, omitting the unit from your answer.

Some solved cases for reference:
molecule	inhibition [%]
c1ccc(-c2csc3ncccc23)cc1	0
Fc1ccc(-c2nnc(-c3sc4ncccc4c3-c3ccc(Cl)cc3)o2)cc1	24
Fc1ccc(C/C=C/c2sc3ncccc3c2-c2ccc(F)cc2)cc1	12
O=C(CCc1ccc(F)cc1)c1[nH]c2ccccc2c1-c1ccc(F)cc1	4

Prompt: For CC(=O)c1sc2ncccc2c1-c1ccccc1 , what is its reported inhibition?
Response: 17

Prompt: For O=C(Nc1ccc(F)cc1)c1sc2ncccc2c1-c1ccc(Cl)cc1 , what is its reported inhibition?
Response: 0

====

// values below are pKi; system is Metabotropic glutamate receptor 5 (Rattus norvegicus, UniProt P31424)
Sequence (P31424 whole entry): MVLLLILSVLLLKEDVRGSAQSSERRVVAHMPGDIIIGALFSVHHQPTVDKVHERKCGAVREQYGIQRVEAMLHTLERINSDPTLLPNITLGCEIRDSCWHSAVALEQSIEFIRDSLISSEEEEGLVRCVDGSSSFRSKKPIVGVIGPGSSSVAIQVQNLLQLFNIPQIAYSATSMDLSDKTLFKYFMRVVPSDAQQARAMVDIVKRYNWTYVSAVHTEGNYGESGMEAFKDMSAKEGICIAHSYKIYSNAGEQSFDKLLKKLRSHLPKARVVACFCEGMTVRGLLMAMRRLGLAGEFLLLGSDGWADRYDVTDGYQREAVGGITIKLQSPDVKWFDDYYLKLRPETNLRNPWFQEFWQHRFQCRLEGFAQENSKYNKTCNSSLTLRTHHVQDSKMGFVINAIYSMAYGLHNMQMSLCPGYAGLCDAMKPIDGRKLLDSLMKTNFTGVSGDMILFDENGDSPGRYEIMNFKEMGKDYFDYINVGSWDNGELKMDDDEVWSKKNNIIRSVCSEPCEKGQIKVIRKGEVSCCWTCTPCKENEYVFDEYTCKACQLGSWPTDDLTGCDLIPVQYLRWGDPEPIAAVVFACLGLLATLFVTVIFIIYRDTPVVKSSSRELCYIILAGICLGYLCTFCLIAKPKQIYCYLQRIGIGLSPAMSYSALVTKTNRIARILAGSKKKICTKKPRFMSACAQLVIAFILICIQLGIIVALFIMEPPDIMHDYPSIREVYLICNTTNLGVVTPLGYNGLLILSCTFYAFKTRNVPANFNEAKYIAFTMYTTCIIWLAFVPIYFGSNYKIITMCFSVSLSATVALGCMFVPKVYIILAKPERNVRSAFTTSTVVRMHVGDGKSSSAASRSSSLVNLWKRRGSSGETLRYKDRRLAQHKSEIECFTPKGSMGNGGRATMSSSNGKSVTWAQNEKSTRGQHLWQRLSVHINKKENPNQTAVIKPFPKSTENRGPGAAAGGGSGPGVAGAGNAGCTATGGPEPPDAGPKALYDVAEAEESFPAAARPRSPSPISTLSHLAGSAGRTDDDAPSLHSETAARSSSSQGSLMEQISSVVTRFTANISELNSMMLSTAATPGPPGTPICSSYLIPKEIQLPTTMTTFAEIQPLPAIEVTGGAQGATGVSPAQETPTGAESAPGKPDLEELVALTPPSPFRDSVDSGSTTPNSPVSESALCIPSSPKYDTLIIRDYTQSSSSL
The quantity pKi is defined as the negative base-10 logarithm of the molar concentration.

smiles-input	pKi
COc1ccc(CCC(=O)c2sc3ncccc3c2-c2ccccc2)cc1	5.60
O=C(CCc1cccc(F)c1)c1sc2ncccc2c1-c1ccc(F)cc1	6.65
O=C(Cc1ccc(F)cc1)c1sc2ncccc2c1-c1ccc(Cl)cc1	7.08

# evaluate next
Prompt: # returns recorded pKi (system: Metabotropic glutamate receptor 5 (Rattus norvegicus, UniProt P31424)) for O=C(CCc1ccc(F)cc1)c1sc2ncccc2c1-c1ccccc1
Response: 6.46

====

- target-of-assay: Metabotropic glutamate receptor 5 (Rattus norvegicus) (UniProt P31424)
- protocol-summary: Displacement of [3H]-M-MPEP from mGluR5 in rat cerebrocortical membrane preparation at 1 uM
- Format: cell membranes
measure: inhibition (%)
Record the value in %, omitting the unit from your answer.

compound	reported-value
O=C(c1ccc(Cl)cc1)c1sc2ncccc2c1-c1ccc(F)cc1	30
O=C(CCc1ccccc1)c1sccc1-c1ccccc1	0
Fc1ccc(CCCc2sc3ncccc3c2-c2ccc(F)cc2)cc1	0

Prompt: For Fc1ccc(-c2c(C3=NOC(c4ccc(F)cc4)C3)sc3ncccc23)cc1 (stereo not given) , what is its reported inhibition?
Response: 52

Prompt: For CN(Cc1ccc(F)cc1)C(=O)c1sc2ncccc2c1-c1ccc(Cl)cc1 , what is its reported inhibition?
Response: 13
